System: Mus musculus
Assay: Anticancer activity after implantation of HT-29 human adeno carcinoma xenograft in mice at a dose of 300 mg/kg
Type: functional
Overview of reported inhibition in vivo at 300 mg/kg across a group of molecules:
Respond numerically; units are % and should not be typed.

{"mol": "O=S(=O)(/C=C/c1ccc(Cl)cc1Cl)Cc1ccc(Nc2ncnc3ccccc23)cc1", "target": "Mus musculus", "outputUnit": "%", "inhibition in vivo at 300 mg/kg": 22}
{"mol": "COc1cc2ncnc(Nc3ccc(CS(=O)(=O)/C=C/c4ccc(Cl)cc4Cl)cc3)c2cc1OC", "target": "Mus musculus", "outputUnit": "%", "inhibition in vivo at 300 mg/kg": 68}
{"mol": "O=S(=O)(/C=C/c1ccc(F)cc1)Cc1ccc(Nc2ncnc3ccccc23)cc1", "target": "Mus musculus", "outputUnit": "%", "inhibition in vivo at 300 mg/kg": 84}

Task item: If you can, please state the reported inhibition in vivo at 300 mg/kg value of O=S(=O)(/C=C/c1ccc(Cl)cc1Cl)Cc1ccc(Nc2ncnc3ccc(Br)cc23)cc1 .
Reply: 22
